Protocol Summary: Human HepG2 cell viability assay in 384 well format
Type: toxicity, cell-based
Design: dose 125 nL, time 70.5 hour; concentration not given beside the values
Details: HepG2 cells, read-out: Inhibition
Reported Endpoint: cytotoxicity at 70.5 h (%)

>>> endpoint_value("COc1ccc2c(c1)CN(c1cc(N3CCCC3CO)ncn1)CC2 (centres undefined)")
-7.51
>>> endpoint_value("Cc1noc(C(C)N2CCN(c3ncnc4ccccc34)CC2)n1 (centres undefined)")
-13.6
>>> endpoint_value("CN1CCC(Cc2cnc3ccccc3c2)C1 (centres undefined)")
1.19
>>> endpoint_value("Cc1ccc(-c2nc(CN3CCC(C(=O)N(C)C)CC3)cs2)o1")
9.92
>>> endpoint_value("Cc1cc(N2CCN(C3CCOCC3)CC(C(=O)N(C)C)C2)ncn1 (centres undefined)")
-6.48
>>> endpoint_value("CS(=O)(=O)CC(=O)N1C[C@H]2CCC[C@@]2(COc2ccccn2)C1")
12.7
>>> endpoint_value("CN(Cc1ccccn1)C(=O)C(c1ccccc1)N1CCSCC1 (centres undefined)")
-7.59
>>> endpoint_value("CCn1cc(NC(=O)NCC(O)COc2ccccc2)cn1 (centres undefined)")
-7.02
>>> endpoint_value("Cc1cnn(CCCN2C(=O)CCc3ccccc32)c1")
11.4
>>> endpoint_value("c1cnc(NCc2noc3c2CN(c2cnccn2)CC3)nc1")
-3.45
>>> endpoint_value("C[C@@H]1CN(Cc2cccnc2)C[C@]1(C)O")
-15.2
>>> endpoint_value("CC(C)N1CCC(C(=O)N2CCCN(c3ccccc3)CC2)CC1")
-8.78
>>> endpoint_value("CN1CCCN(C(=O)c2cnsn2)c2cc(Cl)ccc21")
-13.8
>>> endpoint_value("CN(C)C(=O)c1n[nH]c2c1CN(CC1CCCCC1)C2")
-2.71
>>> endpoint_value("CCS(=O)(=O)N1CCc2c(nc(C3CCCN3)nc2NC)C1 (centres undefined)")
18.6
>>> endpoint_value("c1ccc(C2CCCN(c3cncc(-n4cccn4)n3)CC2)cc1 (centres undefined)")
-9.13
>>> endpoint_value("O=c1cc(CN2CCCC(CCc3c(F)cccc3F)C2)[nH]c(=O)[nH]1 (centres undefined)")
-8.15
>>> endpoint_value("CC(=O)N[C@@H](CC(C)C)C(=O)N1CCC(n2cc(CO)nn2)CC1")
-4.38
>>> endpoint_value("COCCN1CCC2(CC1)COc1ccccc1S(=O)(=O)N(C)C2")
2.33
>>> endpoint_value("C[C@H]1C[C@@H]2CCN(Cc3ccccn3)C[C@H]2O1")
-0.0314
>>> endpoint_value("CCCn1cc(-c2cc(C(=O)N(C)C)c3ccc(OC)cc3n2)cn1")
-3.58
>>> endpoint_value("CC1CCCCN1CCNC(=O)c1ccn(-c2ccc(F)cc2)n1 (centres undefined)")
35.6
>>> endpoint_value("COC(=O)C(O)C1CCN(Cc2cccc(-n3cccn3)c2)CC1 (centres undefined)")
-1.06
>>> endpoint_value("COCCN1C[C@H]2CN(C(=O)c3ccno3)CCN2C1=O")
-6.26

----------
Reported cytotoxicity at 70.5 h values are given for each entry in this list.
Protocol Summary: Human HepG2 cell viability assay in 384 well format
Type: toxicity, cell-based
Set-up: dose 125 nL, time 70.5 hour; concentration not given beside the values
Details: HepG2 cells, read-out: Inhibition
Reported Endpoint: cytotoxicity at 70.5 h (%)

>>> endpoint_value("c1cnc(N2CCOC3(CCN(CC4CCOC4)CC3)C2)nc1 (stereo unspecified)")
2.18
>>> endpoint_value("O=C(NCCCC(=O)N1Cc2ccccc2C1)NCc1nccs1")
-5.34
>>> endpoint_value("Cc1cc(N2CCN(C(=O)c3cc(Cl)c[nH]3)CC2)nc(N)n1")
-6.18
>>> endpoint_value("CCOc1cc(C)nc(N2CCN(C(=O)c3cscn3)CC2)n1")
-4.61
>>> endpoint_value("CC1(c2ccccc2)CCCN(C(=O)c2ccn3nnnc3c2)C1 (stereo unspecified)")
-0.523
>>> endpoint_value("CN(C)c1ncc(-c2cc(C(=O)NCCC#N)n(CC3CC3)c2)cn1")
-12.9
>>> endpoint_value("O=C1CCc2cc(-c3csc(CCN4CCOC4=O)n3)ccc2N1")
2.18
>>> endpoint_value("Cc1cc(C)n(CC2CN(Cc3cccnc3)CCO2)n1 (stereo unspecified)")
3.35
>>> endpoint_value("NC(=O)c1cc2c(nc1Oc1ccccc1CN1CCCCC1)CCC2")
-15
>>> endpoint_value("CCOCC1CN(C2CCCC2)Cc2cnn(CC3CCOCC3)c21 (stereo unspecified)")
2.06
>>> endpoint_value("O=C1[C@H]2CN(C3CCOCC3)C[C@H]2CN1Cc1ccncc1")
-8.99

----------
Reported cytotoxicity at 70.5 h values are given for each entry in this list.
Protocol Summary: Human HepG2 cell viability assay in 384 well format
Assay type: toxicity, cell-based
Design: dose 125 nL, time 70.5 hour; concentration not given beside the values
Details: HepG2 cells, read-out: Inhibition
Reported Endpoint: cytotoxicity at 70.5 h (%)

>>> endpoint_value("CS(=O)(=O)NC1CCN(C(=O)c2[nH]c3ccc(Cl)cc3c2Cl)CC1")
31.7
>>> endpoint_value("c1ccc(O[C@@H]2CC[C@H]3[C@H]2OCCN3Cc2ccsc2)nc1")
8.42
>>> endpoint_value("O=C(CNC(=O)c1ccoc1)NCCOc1ccc2c(c1)CCC2")
-6.52
>>> endpoint_value("COc1ccccc1-n1nc(-c2ccco2)n(CC(N)=O)c1=O")
-7.68
>>> endpoint_value("Cc1nc2c(c(=O)n1C)CN(C(=O)C1CCN(C(=O)C3CCC3)CC1)C2")
-1.69
>>> endpoint_value("CN(Cc1nnc2ccccn12)C(=O)NC1CCCCC1")
-4.44
>>> endpoint_value("COCCC(C)NS(=O)(=O)c1ccc(C)c(N(C)C)c1 (stereo unspecified)")
-2.25
>>> endpoint_value("CCN1CCN(S(=O)(=O)c2cc(C)c(C)cc2Br)CC1")
-6.61
>>> endpoint_value("CCc1nc(C)c(C(=O)NCCN2CCN(C(C)=O)CC2)s1")
-7.15
>>> endpoint_value("Nc1ncc2c(n1)CN(C1CCCC1)C2=O")
-7.28
>>> endpoint_value("CC(C)=CCCC(C)CN1CCC(n2cc(CO)nn2)CC1 (stereo unspecified)")
-4.45
>>> endpoint_value("O=C(NCC1CC1)[C@H]1C[C@@H]2[C@@H](C1)OCCN2Cc1cccnc1")
25
>>> endpoint_value("COCC1CC2(CCN(Cc3cccc(C#N)c3)CC2)CN1C(C)C (stereo unspecified)")
-4.89
>>> endpoint_value("COc1ccccc1NC(=O)NC1(c2noc(CN(C)C)n2)CCCC1")
22.4
>>> endpoint_value("O=C(NCC1CCCN1CCc1ccccc1)NCC1(O)CCC1 (stereo unspecified)")
-9.32
>>> endpoint_value("COCCn1cnnc1Cn1ccnc1-c1ccsc1")
1.35
>>> endpoint_value("CCc1c(C)nc2n(c1=O)CC(C(=O)NCc1cccs1)CS2 (stereo unspecified)")
23
>>> endpoint_value("Cc1noc(C(C)C)c1C(=O)NCC1CCCN1Cc1ccccc1 (stereo unspecified)")
9.45
>>> endpoint_value("c1csc(-c2noc(CN3CCc4cncnc4C3)n2)c1")
-8.24
>>> endpoint_value("CC(Nc1cccc2c1OCCO2)C(=O)NC(N)=O (stereo unspecified)")
-2.31
>>> endpoint_value("COc1ccc(C(=O)N(C)Cc2ncc(C)c(OC)c2C)c(OC)c1")
-4.31
>>> endpoint_value("COCC(=O)N1CCc2[nH]c(=O)ccc2C1")
-8.99
>>> endpoint_value("COc1ccnc(N2CCN(CC(O)CN3CCOCC3)CC2)n1 (stereo unspecified)")
-8.1
>>> endpoint_value("CC1(C)OC(=O)N(CC(=O)N2CCC(c3ccccc3F)C2)C1=O (stereo unspecified)")
-3.83
>>> endpoint_value("CC(C)n1nc(CN2CCCC2=O)c2c1CN(C(=O)c1ccco1)C2")
-5.68
>>> endpoint_value("CN(c1cccnn1)C1CCN(C(=O)c2ccc3c(c2)COC3)CC1")
-13.7
>>> endpoint_value("Cc1nnc([C@@]23CCO[C@@H]2CCN(Cc2nccs2)C3)o1")
-9.1
>>> endpoint_value("CCC(OC)C(=O)N1CCC2(CC1)c1nc[nH]c1CCN2S(C)(=O)=O (stereo unspecified)")
32.6
>>> endpoint_value("COc1cccc2c1N(C(=O)c1ccc(C)nc1)CCC2")
4.1
>>> endpoint_value("Cn1nc(C(=O)N2CCOCC2)c2c1CN(CC1CCC1)C2")
-5.26
>>> endpoint_value("Cc1cc(N[C@H]2CN(CC(C)(C)N3CCOCC3)C[C@@H]2C2CC2)ncn1")
-15.4
>>> endpoint_value("Cc1cccc(CN2CCN(C(=O)c3cc(C4CC4)[nH]n3)CC2)c1")
-4.75
>>> endpoint_value("CC(O)(CN1CCN(CCO)CC1)c1cccc(C(F)(F)F)c1 (stereo unspecified)")
14.6
>>> endpoint_value("COCC(=O)N[C@H](C)c1onc(-c2ccccc2)c1C(=O)O")
-4.32
>>> endpoint_value("COc1ccc(O[C@H]2COCCN(C(=O)c3ccno3)C2)cc1")
-2.74
>>> endpoint_value("CC(C)N1CCCC(C(=O)N2CCc3c(nc(CC4CC4)[nH]c3=O)C2)C1 (stereo unspecified)")
3.48
>>> endpoint_value("O=C(CCCN1CCCCC1)N[C@H](C(=O)O)c1cccc(F)c1F")
-6.96
>>> endpoint_value("Cc1ccc(C(=O)N2CCC3(CC2)CN(CCN(C)C)C(=O)O3)c(F)c1")
7.08
>>> endpoint_value("Cc1ccc(CN2CC3(CCN(C(=O)c4cscn4)C3)C2)o1")
-7.14
>>> endpoint_value("O=C(Cc1ccccc1)N1CC[C@@H]2CNS(=O)(=O)[C@@H]2CC1")
2.48
>>> endpoint_value("Cc1ccc(C(=O)NCCCS(C)(=O)=O)c(=O)[nH]1")
15.4
>>> endpoint_value("Cc1nc(NCC(O)CN2CCCCCC2)c2c(C)noc2n1 (stereo unspecified)")
-5.74
>>> endpoint_value("CC(C)C(c1cccnc1)N(C)C(=O)Cc1c(F)cccc1F (stereo unspecified)")
-6.11
>>> endpoint_value("Cc1cc(C(=O)NC(C)CC(=O)c2ccco2)[nH]n1 (stereo unspecified)")
15.2
>>> endpoint_value("CN(C)C(=O)c1c[nH]nc1-c1ccc(CNC(=O)c2cnccn2)cc1")
-1.73
>>> endpoint_value("CCc1cc(CN2C[C@H]3CC[C@@H]2CN(C2Cc4ccccc4C2)C3)on1")
-2.96

Source: ChEMBL document CHEMBL3507680
